// data source = ChEMBL document CHEMBL4689842

Reported Population Membrane Permeable-Phenotype (%) by item:
System: HEK-293T
Test: Multiplex assay against HEK293T
Assay type: toxicity, cell-based
Conditions: human, 12 h, 1 µM, compound concentration 1 uM, replicate 1
Entry rule: numbers only, all in %.

Past entries and their recorded results:
# compound, reading.unit, experimental.result
data = [
    ("CC(C)N1CCC(C)(C)c2cc(C#Cc3ccc(C(=O)O)cc3)ccc21", "%", 2),
    ("Cc1cn(-c2cc(NC(=O)c3ccc4c(c3)CN(c3cncnc3)C[C@@H]4C)cc(C(F)(F)F)c2)cn1", "%", 5),
    ("CNC(=O)c1cc(Oc2ccc(NC(=O)Nc3cc(C(C)(C)C)nn3-c3ccc4ncccc4c3)c(F)c2)ccn1", "%", 11),
    ("CNC(=O)c1nn(C)c2c1C(C)(C)Cc1cnc(Nc3ccc(N4CCN(C)CC4)cc3)nc1-2", "%", 9),
    ("CCOc1cc(N2CCC(O)CC2)ccc1Nc1ncc2c(n1)N(C1CCCC1)CCC(=O)N2C", "%", 3),
    ("COc1cc2c(Nc3ccc(NC(=O)c4ccccc4)cc3)ncnc2cc1OCCCN1CCOCC1", "%", 29),
    ("Cc1nc(Cc2cccc(C(F)(F)F)c2)sc1-c1ccc(C(N)=O)nc1 [TP-024n]", "%", 2),
    ("CC(=O)O[C@H]1C(=O)[C@@]2(C)[C@H]([C@H](OC(=O)c3ccccc3)[C@]3(O)C[C@H](OC(=O)[C@H](O)[C@@H](NC(=O)c4ccccc4)c4ccccc4)C(C)=C1C3(C)C)[C@]1(OC(C)=O)CO[C@@H]1C[C@@H]2O", "%", 4),
]

Please examine the following record next.
Bench note: what Population Membrane Permeable-Phenotype (%) did CCCn1c(=O)c2[nH]c(C34CC5CC(CC3C5)C4)nc2n(CCC)c1=O show? 3

----------
Tested on: U2OS
Experiment: Multiplex assay against U2OS
Type: toxicity, cell-based
Settings: human, 24 h, 10 µM, compound concentration 10 uM, replicate 2
experimental.endpoint: Population Apoptotic (%)
Entry rule: numbers only, all in %.

Past entries and their recorded results:
# compound, experimental.endpoint, reading.unit, experimental.result
data = [
    ("Cc1nc(Cc2cccc(C(F)(F)F)c2)sc1-c1ccc(C(N)=O)nc1 [TP-024n]", "Population Apoptotic (%)", "%", 44),
    ("Nc1nc2c(c(N3CCNCC3)n1)CCC1=C2[C@@H]2CCCC[C@@H]2O1", "Population Apoptotic (%)", "%", 33),
    ("CCC(=O)O[C@]1(C(=O)SCF)[C@H](C)C[C@H]2[C@@H]3C[C@H](F)C4=CC(=O)C=C[C@]4(C)[C@@]3(F)[C@@H](O)C[C@@]21C [FLUTICASONE PROPIONATE]", "Population Apoptotic (%)", "%", 58),
    ("CN(C)C/C=C/C(=O)Nc1cc2c(Nc3ccc(F)c(Cl)c3)ncnc2cc1O[C@H]1CCOC1.O=C(O)/C=C\\C(=O)O.O=C(O)/C=C\\C(=O)O [AFATINIB DIMALEATE]", "Population Apoptotic (%)", "%", 93),
    ("COc1cc2c(Nc3ccc(NC(=O)c4ccccc4)cc3)ncnc2cc1OCCCN1CCOCC1", "Population Apoptotic (%)", "%", 25),
]

Bench note: what Population Apoptotic (%) did CN(C)CCOc1ccc(-c2nc(-c3ccncc3)c(-c3ccc4c(c3)CC/C4=N\O)[nH]2)cc1 [SB590885] show? 50

Moving on to the next compound: COc1cc2c(NC3CCN(C(C)C)CC3)nc(N3CCC(F)(F)CC3)nc2cc1OCCCN1CCCC1 90

Moving on to the next compound: CNc1oc(-c2cccc3ccccc23)nc1C#N 81

----------
Test system: HEK-293T
Assay: Multiplex assay against HEK293T
Format: toxicity, cell-based
Details: human, 48 h, 10 µM, compound concentration 10 uM, replicate 1
Binary call on Population Hoechst High Intensity Objects (%): yes from 20% upward, no beneath that.

A selection of reference data follows.
# molecule, qualitative.label
rows = [
    ("CCn1c(-c2nonc2N)nc2cnc(Oc3cccc(NC(=O)c4ccc(OCCN5CCOCC5)cc4)c3)cc21 [GSK-269962A]", "no"),
    ("Nc1ccc(C(=O)Nc2cccc(-c3nc(N4CCOCC4)c4oc5ncccc5c4n3)c2)cn1", "yes"),
    ("CC(C)Oc1ccc(C(=O)N[C@H](CNC(=O)CN(C)C)Cc2ccc(-c3cn4cccc([C@H](C)O)c4n3)cc2)cc1Cl [GSK-923295A]", "yes"),
    ("CCCn1c(=O)c2[nH]c(C34CC5CC(CC3C5)C4)nc2n(CCC)c1=O [ROLOFYLLINE]", "no"),
    ("COc1ccc(NS(=O)(=O)c2sc3ccc(Cl)cc3c2C)cc1N1CCNCC1.Cl", "yes"),
]

Dear colleague, could you confirm whether CC(C)N1CCC(C)(C)c2cc(C#Cc3ccc(C(=O)O)cc3)ccc21 has Population Hoechst High Intensity Objects (%) at or above 20%? yes

Moving on to the next molecule: Cl.Cl.Nc1ncnc2c1c(-c1cccc(OCc3ccccc3)c1)cn2[C@H]1C[C@@H](CN2CCC2)C1 no

Moving on to the next molecule: CCc1cc2c(cc1CC)CC(NC[C@H](O)c1ccc(O)c3[nH]c(=O)ccc13)C2 [INDACATEROL] yes

Moving on to the next molecule: COc1cc(N2CCC(N(C)C)CC2)ccc1Nc1ncc(Cl)c(Nc2ccccc2P(C)(C)=O)n1 yes

Moving on to the next molecule: O=C(O)c1ccc2cc(-c3ccc(O)c(C45CC6CC(CC(C6)C4)C5)c3)ccc2c1 [O-DEMETHYLATED ADAPALENE] no

Moving on to the next molecule: COc1cc2c(NC3CCN(C(C)C)CC3)nc(N3CCC(F)(F)CC3)nc2cc1OCCCN1CCCC1 yes

Moving on to the next molecule: Nc1nc2c(c(N3CCNCC3)n1)CCC1=C2[C@@H]2CCCC[C@@H]2O1 yes

Moving on to the next molecule: Cc1cc2c(cc1N1C(=O)c3cccc4c(CCCO)ccc(c34)C1=O)n(C)c(=O)n2C no

Moving on to the next molecule: C1=N/C2=N/c3ccc(OCCN4CCCC4)c(c3)COC/C=C\COCc3cccc(c3)C(=C1)N2 yes

Moving on to the next molecule: CCC(=O)O[C@]1(C(=O)SCF)[C@H](C)C[C@H]2[C@@H]3C[C@H](F)C4=CC(=O)C=C[C@]4(C)[C@@]3(F)[C@@H](O)C[C@@]21C [FLUTICASONE PROPIONATE] no

----------
Tested on: U2OS
Test: Multiplex assay against U2OS
Assay type: toxicity, cell-based
Conditions: human, 12 h, 10 µM, compound concentration 10 uM, replicate 2
Binary call on Population Pyknosed Nuclei (%): condition met from 10% upward, condition not met beneath that.

A selection of reference data follows.
# compound.smiles, qualitative.label
records = [
    ("c1ccc2oc(-c3csc(C4CCN(Cc5nc6ncccc6[nH]5)CC4)n3)cc2c1", "condition not met"),
    ("CC(C)N1CCC(C)(C)c2cc(C#Cc3ccc(C(=O)O)cc3)ccc21", "condition not met"),
    ("O=C(O)c1ccc2cc(-c3ccc(O)c(C45CC6CC(CC(C6)C4)C5)c3)ccc2c1", "condition not met"),
    ("COc1cc2c(NC3CCN(C(C)C)CC3)nc(N3CCC(F)(F)CC3)nc2cc1OCCCN1CCCC1", "condition met"),
]

API: the following record is the query input.
Dear colleague, could you confirm whether CNc1oc(-c2cccc3ccccc23)nc1C#N has Population Pyknosed Nuclei (%) at or above 10%? condition met

----------
Test system: Fibroblast
Assay: Incucyte cell viability with human fibroblast; note: filed as whole numbers so only -1 and 0 and 1 occur
Type: toxicity, cell-based
Conditions: 24 h, 10 µM, compound concentration 10 uM, replicate number 1, timepoint 24 hours
Reported Growth Rate by item:

Write down the reported Growth Rate of CCCn1c(=O)c2[nH]c(C34CC5CC(CC3C5)C4)nc2n(CCC)c1=O , test system: Fibroblast. 0

Moving on to the next compound: O=C(O)c1ccc2c(c1)nc(Nc1cccc(Cl)c1)c1ccncc12 0

Moving on to the next compound: CCC(=O)N1CC[C@H](Nc2ncnc3c2CN(c2cnc(OC)c(C(F)(F)F)c2)CC3)C1 0

----------
System: Fibroblast
Test: Multiplex assay against human fibroblast
Format: toxicity, cell-based
Details: 12 h, 1 µM, compound concentration 1 uM, replicate 2
experimental.endpoint: Population Pyknosed Nuclei (%)

Past entries and their recorded results:
# compound, Population Pyknosed Nuclei (%)
records = [
    ("CC(C)Oc1ccc(C(=O)N[C@H](CNC(=O)CN(C)C)Cc2ccc(-c3cn4cccc([C@H](C)O)c4n3)cc2)cc1Cl [GSK-923295A]", "7%"),
    ("CCOc1cc(N2CCC(O)CC2)ccc1Nc1ncc2c(n1)N(C1CCCC1)CCC(=O)N2C", "4%"),
    ("Cc1nc(Cc2cccc(C(F)(F)F)c2)sc1-c1ccc(C(N)=O)nc1 [TP-024n]", "5%"),
    ("CC(C)(C)c1cnc(CSc2cnc(NC(=O)C3CCNCC3)s2)o1", "7%"),
    ("c1ccc2oc(-c3csc(C4CCN(Cc5nc6ncccc6[nH]5)CC4)n3)cc2c1", "11%"),
]

Bench note: what Population Pyknosed Nuclei (%) did CN(C)CCOc1ccc(-c2nc(-c3ccncc3)c(-c3ccc4c(c3)CC/C4=N\O)[nH]2)cc1 show? 52%

Moving on to the next compound: Cl.Cl.NC1(c2ccc(-c3nc4ccn5c(=O)[nH]nc5c4cc3-c3ccccc3)cc2)CCC1 9%

Moving on to the next compound: CCCn1c(=O)c2[nH]c(C34CC5CC(CC3C5)C4)nc2n(CCC)c1=O 7%
